test system: Escherichia coli TOP10; experiment: shrunken log2 fold change of peptide-encoding DNA abundance (4.5 h post-induction vs induction); higher = less antimicrobial activity (less host growth inhibition); settings: time post-induction: 4.5 h; library: site-saturation at positions 5, 18, 19, 20
Kind request: treat 0.3 as inclusive, so shrunken log2 fold change at 0.3 or higher is condition met, anything lower is condition not met.

Consider the worked cases shown below.
- Sequence entry: "RRIRDRPPRLPRPRPRPNKRPRP"
  Assigned category: "condition not met"
- Sequence entry: "RRIRGRPPRLPRPRPRPPDTPRP"
  Assigned category: "condition met"

Please tell me: is the sequence RRIRHRPPRLPRPRPRPTPHPRP at or over 0.3 in terms of shrunken log2 fold change?
condition not met

Could you do the same for RRIRWRPPRLPRPRPRPLQCPRP , please?
condition not met

Could you do the same for RRIRRRPPRLPRPRPRPCTYPRP , please?
condition not met

---

Parameter: shrunken log2 fold change. Scope: all listed entries.
system: Escherichia coli TOP10; experiment: shrunken log2 fold change of peptide-encoding DNA abundance (4.5 h post-induction vs induction); higher = less antimicrobial activity (less host growth inhibition); conditions: time post-induction: 4.5 h; library: site-saturation at positions 5, 18, 19, 20

Example entries begin here.
- Sequence entry: "RRIRNRPPRLPRPRPRPTPFPRP"
  System: "Escherichia coli TOP10"
  shrunken log2 fold change: -0.07
- Sequence entry: "RRIRRRPPRLPRPRPRPSWMPRP"
  System: "Escherichia coli TOP10"
  shrunken log2 fold change: -0.324

With those in mind, consider the next sequence.
Notebook entry, Escherichia coli TOP10 assay: shrunken log2 fold change of RRIRYRPPRLPRPRPRPTKEPRP = ?
-0.00889

---

system: Escherichia coli TOP10; test: shrunken log2 fold change of peptide-encoding DNA abundance (4.5 h post-induction vs induction); higher = less antimicrobial activity (less host growth inhibition); settings: time post-induction: 4.5 h; library: site-saturation at positions 5, 18, 19, 20
Parameter: shrunken log2 fold change. Scope: all listed entries.

Example entries begin here.
- Sequence entry: "RRIRRRPPRLPRPRPRPTGDPRP"
  shrunken log2 fold change: 0.0418
- Sequence entry: "RRIRDRPPRLPRPRPRPSWWPRP"
  shrunken log2 fold change: 0.276
- Sequence entry: "RRIRWRPPRLPRPRPRPTNVPRP"
  shrunken log2 fold change: -0.0165

Requested field: shrunken log2 fold change. Item: RRIRLRPPRLPRPRPRPGPSPRP
0.25

---

system: Escherichia coli TOP10; assay: shrunken log2 fold change of peptide-encoding DNA abundance (4.5 h post-induction vs induction); higher = less antimicrobial activity (less host growth inhibition); details: time post-induction: 4.5 h; library: site-saturation at positions 5, 18, 19, 20
Parameter: shrunken log2 fold change. Scope: all listed entries.

Example entries begin here.
- Sequence entry: "RRIRIRPPRLPRPRPRPTYRPRP"
  shrunken log2 fold change: -0.0791
- Sequence entry: "RRIRMRPPRLPRPRPRPKPKPRP"
  shrunken log2 fold change: 0.476
- Sequence entry: "RRIRERPPRLPRPRPRPRPFPRP"
  shrunken log2 fold change: -0.0965
- Sequence entry: "RRIRCRPPRLPRPRPRPMQQPRP"
  shrunken log2 fold change: -0.036
- Sequence entry: "RRIRTRPPRLPRPRPRPAAMPRP"
  shrunken log2 fold change: 0.154

Requested field: shrunken log2 fold change. Item: RRIRDRPPRLPRPRPRPILRPRP
-0.0119

Could you do the same for RRIRPRPPRLPRPRPRPFAVPRP , please?
-0.113

Could you do the same for RRIRTRPPRLPRPRPRPCEVPRP , please?
0.0427

Could you do the same for RRIRSRPPRLPRPRPRPHTEPRP , please?
-0.599

Could you do the same for RRIRHRPPRLPRPRPRPKWVPRP , please?
-0.302

Could you do the same for RRIRLRPPRLPRPRPRPFNEPRP , please?
-0.255

---

Parameter: shrunken log2 fold change. Scope: all listed entries.
tested on: Escherichia coli TOP10; assay: shrunken log2 fold change of peptide-encoding DNA abundance (4.5 h post-induction vs induction); higher = less antimicrobial activity (less host growth inhibition); details: time post-induction: 4.5 h; library: site-saturation at positions 5, 18, 19, 20
// return just the number, without any unit appended

- Sequence entry: "RRIRERPPRLPRPRPRPRRYPRP"
  Endpoint result: -0.184
- Sequence entry: "RRIRKRPPRLPRPRPRPAILPRP"
  Endpoint result: 0.0725
- Sequence entry: "RRIRERPPRLPRPRPRPTKSPRP"
  Endpoint result: -0.00427
- Sequence entry: "RRIRRRPPRLPRPRPRPDYLPRP"
  Endpoint result: 0.152

Notebook entry, Escherichia coli TOP10 assay: shrunken log2 fold change of RRIRYRPPRLPRPRPRPRIQPRP = ?
-0.203

Could you do the same for RRIRTRPPRLPRPRPRPYAWPRP , please?
-0.0721

Could you do the same for RRIRFRPPRLPRPRPRPTREPRP , please?
0.599

Could you do the same for RRIRFRPPRLPRPRPRPMINPRP , please?
-0.208

Could you do the same for RRIRNRPPRLPRPRPRPHSEPRP , please?
-0.438

Could you do the same for RRIRCRPPRLPRPRPRPYYQPRP , please?
-1.14

Could you do the same for RRIRPRPPRLPRPRPRPRLRPRP , please?
0.458

Could you do the same for RRIRVRPPRLPRPRPRPQGWPRP , please?
0.522

Could you do the same for RRIRIRPPRLPRPRPRPHKAPRP , please?
-0.0133

---

test system: Escherichia coli TOP10; test: shrunken log2 fold change of peptide-encoding DNA abundance (4.5 h post-induction vs induction); higher = less antimicrobial activity (less host growth inhibition); settings: time post-induction: 4.5 h; library: site-saturation at positions 5, 18, 19, 20
Parameter: shrunken log2 fold change. Scope: all listed entries.

Example entries begin here.
- Sequence entry: "RRIRNRPPRLPRPRPRPDYFPRP"
  shrunken log2 fold change: -0.209
- Sequence entry: "RRIRNRPPRLPRPRPRPCMIPRP"
  shrunken log2 fold change: -0.143

Requested field: shrunken log2 fold change. Item: RRIRDRPPRLPRPRPRPMEQPRP
-0.164

Could you do the same for RRIRPRPPRLPRPRPRPWVGPRP , please?
0.0889

Could you do the same for RRIRARPPRLPRPRPRPAIGPRP , please?
0.714

Could you do the same for RRIRGRPPRLPRPRPRPGRGPRP , please?
0.773

Could you do the same for RRIRCRPPRLPRPRPRPQISPRP , please?
-0.785

Could you do the same for RRIRFRPPRLPRPRPRPLYQPRP , please?
-0.374

Could you do the same for RRIRFRPPRLPRPRPRPAGDPRP , please?
0.378

Could you do the same for RRIRKRPPRLPRPRPRPITIPRP , please?
-0.165

Could you do the same for RRIRTRPPRLPRPRPRPSTEPRP , please?
-0.456

Could you do the same for RRIRNRPPRLPRPRPRPNETPRP , please?
-0.0424

Could you do the same for RRIRTRPPRLPRPRPRPCVKPRP , please?
0.0506

Could you do the same for RRIRTRPPRLPRPRPRPTNCPRP , please?
0.216

Could you do the same for RRIRYRPPRLPRPRPRPQSCPRP , please?
0.0148

Could you do the same for RRIRFRPPRLPRPRPRPGHLPRP , please?
-0.459

Could you do the same for RRIRTRPPRLPRPRPRPPEYPRP , please?
0.0238

---

Parameter: shrunken log2 fold change. Scope: all listed entries.
tested on: Escherichia coli TOP10; assay: shrunken log2 fold change of peptide-encoding DNA abundance (4.5 h post-induction vs induction); higher = less antimicrobial activity (less host growth inhibition); settings: time post-induction: 4.5 h; library: site-saturation at positions 5, 18, 19, 20

- Sequence entry: "RRIRSRPPRLPRPRPRPQKKPRP"
  shrunken log2 fold change: -0.0597
- Sequence entry: "RRIRTRPPRLPRPRPRPHKEPRP"
  shrunken log2 fold change: -0.0263

Requested field: shrunken log2 fold change. Item: RRIRNRPPRLPRPRPRPAYAPRP
-0.236

Could you do the same for RRIRGRPPRLPRPRPRPIYRPRP , please?
0.2

---

Parameter: shrunken log2 fold change. Scope: all listed entries.
test system: Escherichia coli TOP10; test: shrunken log2 fold change of peptide-encoding DNA abundance (4.5 h post-induction vs induction); higher = less antimicrobial activity (less host growth inhibition); details: time post-induction: 4.5 h; library: site-saturation at positions 5, 18, 19, 20;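 also: peptides expressed intracellularly from a pBAD plasmid library in pooled LB shake-flask culture, induced with 0.3% L-arabinose, DNA abundance read by NGS, three biological replicates, DESeq2 with apeglm shrinkage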

- Sequence entry: "RRIRTRPPRLPRPRPRPCKLPRP"
  Property label: "shrunken log2 fold change"
  Endpoint result: -0.858

Requested field: shrunken log2 fold change. Item: RRIRSRPPRLPRPRPRPWKQPRP
-0.00145

Could you do the same for RRIRRRPPRLPRPRPRPSQYPRP , please?
0.0176

Could you do the same for RRIRNRPPRLPRPRPRPYAVPRP , please?
-0.0739

Could you do the same for RRIRMRPPRLPRPRPRPCFDPRP , please?
0.0386

Could you do the same for RRIRYRPPRLPRPRPRPQCYPRP , please?
-0.0301

Could you do the same for RRIRCRPPRLPRPRPRPHIKPRP , please?
-0.788

Could you do the same for RRIRQRPPRLPRPRPRPCQWPRP , please?
-0.205
